These data points were gathered from patent US9283209B2.

# protocol.summary: Exjade (deferasirox) solubility profile at 37 C
# Type: physicochemical
# condition.notes: aqueous buffer; pH 5, 37 C
quantity: solubility

Check the records and state solubility for O=C(O)c1ccc(-n2nc(-c3ccccc3O)nc2-c2ccccc2O)cc1 [deferasirox]
< 10 µg/mL

* * *

# protocol.summary: Exjade (deferasirox) solubility profile at 37 C
# Assay type: physicochemical
# condition.notes: aqueous buffer; pH 3, 37 C
quantity: solubility

Answer with reported solubility of O=C(O)c1ccc(-n2nc(-c3ccccc3O)nc2-c2ccccc2O)cc1
< 10 µg/mL

* * *

# protocol.summary: Exjade (deferasirox) solubility profile at 37 C
# Assay type: physicochemical
# condition.notes: simulated gastric fluid; pH 2, 37 C
quantity: solubility

Identify the reported solubility for the following entry. O=C(O)c1ccc(-n2nc(-c3ccccc3O)nc2-c2ccccc2O)cc1
< 10 µg/mL

* * *

# protocol.summary: Thorough QT healthy volunteer study
# Type: in vivo, human
# condition.notes: human, in vivo, oral, 40 mg/kg, 40 mg/kg immediately after a high-fat breakfast, 44 healthy volunteers; read-out: Cmax (average)
quantity: Cmax (µM)
Your answer is read as µM, so omit the unit and give the number.

Tell me its Cmax given O=C(O)c1ccc(-n2nc(-c3ccccc3O)nc2-c2ccccc2O)cc1 [deferasirox] as the entry.
256

* * *

# protocol.summary: Exjade (deferasirox) solubility profile at 37 C
# Assay type: physicochemical
# condition.notes: water, 37 C
quantity: solubility (µg/mL)
Reply numerically in µg/mL, unit not repeated.

Answer with the recorded solubility of O=C(O)c1ccc(-n2nc(-c3ccccc3O)nc2-c2ccccc2O)cc1 only.
20

* * *

# protocol.summary: Exjade (deferasirox) solubility profile at 37 C
# Assay type: physicochemical
# condition.notes: simulated gastric fluid; pH 1, 37 C
quantity: solubility

Please look at this molecule and report its solubility: O=C(O)c1ccc(-n2nc(-c3ccccc3O)nc2-c2ccccc2O)cc1 [deferasirox]
< 10 µg/mL

* * *

# protocol.summary: Exjade (deferasirox) solubility profile at 37 C
# Assay type: physicochemical
# condition.notes: aqueous buffer; pH 4, 37 C
quantity: solubility

Note solubility for the compound shown: O=C(O)c1ccc(-n2nc(-c3ccccc3O)nc2-c2ccccc2O)cc1 [deferasirox]
< 10 µg/mL

* * *

# protocol.summary: Exjade (deferasirox) solubility profile at 37 C
# Format: physicochemical
# condition.notes: aqueous buffer; pH 7.5, 37 C
quantity: solubility (µg/mL)
Kindly answer with a numeric value in µg/mL, unit omitted.

Read off the recorded solubility for O=C(O)c1ccc(-n2nc(-c3ccccc3O)nc2-c2ccccc2O)cc1
167
